# credit: ChEMBL document CHEMBL2218924

Quick list: residual activity per entry.
Target: Insulin receptor-related protein (Homo sapiens) (UniProt P14616)
Sequence (P14616 27-742 limits assumed): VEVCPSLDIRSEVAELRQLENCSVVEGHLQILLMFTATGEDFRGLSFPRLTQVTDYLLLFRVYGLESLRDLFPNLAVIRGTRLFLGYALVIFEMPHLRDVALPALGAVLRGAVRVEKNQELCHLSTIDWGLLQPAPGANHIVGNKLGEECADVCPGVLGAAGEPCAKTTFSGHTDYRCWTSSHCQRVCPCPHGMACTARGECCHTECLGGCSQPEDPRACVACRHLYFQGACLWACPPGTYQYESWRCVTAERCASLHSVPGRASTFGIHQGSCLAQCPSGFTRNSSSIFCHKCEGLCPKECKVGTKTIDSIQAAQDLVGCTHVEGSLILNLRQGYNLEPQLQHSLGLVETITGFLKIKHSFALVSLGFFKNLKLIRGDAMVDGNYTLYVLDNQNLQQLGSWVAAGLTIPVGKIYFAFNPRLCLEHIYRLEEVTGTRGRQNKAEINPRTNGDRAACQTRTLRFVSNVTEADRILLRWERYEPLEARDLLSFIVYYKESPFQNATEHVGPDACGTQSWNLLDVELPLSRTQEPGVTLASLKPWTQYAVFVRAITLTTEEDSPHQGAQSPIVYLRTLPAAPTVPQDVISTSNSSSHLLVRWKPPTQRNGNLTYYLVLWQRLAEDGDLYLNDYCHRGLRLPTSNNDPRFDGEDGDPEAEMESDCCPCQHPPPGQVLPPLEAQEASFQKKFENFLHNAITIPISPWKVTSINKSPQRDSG
Sequence (P14616 747-1297 limits assumed): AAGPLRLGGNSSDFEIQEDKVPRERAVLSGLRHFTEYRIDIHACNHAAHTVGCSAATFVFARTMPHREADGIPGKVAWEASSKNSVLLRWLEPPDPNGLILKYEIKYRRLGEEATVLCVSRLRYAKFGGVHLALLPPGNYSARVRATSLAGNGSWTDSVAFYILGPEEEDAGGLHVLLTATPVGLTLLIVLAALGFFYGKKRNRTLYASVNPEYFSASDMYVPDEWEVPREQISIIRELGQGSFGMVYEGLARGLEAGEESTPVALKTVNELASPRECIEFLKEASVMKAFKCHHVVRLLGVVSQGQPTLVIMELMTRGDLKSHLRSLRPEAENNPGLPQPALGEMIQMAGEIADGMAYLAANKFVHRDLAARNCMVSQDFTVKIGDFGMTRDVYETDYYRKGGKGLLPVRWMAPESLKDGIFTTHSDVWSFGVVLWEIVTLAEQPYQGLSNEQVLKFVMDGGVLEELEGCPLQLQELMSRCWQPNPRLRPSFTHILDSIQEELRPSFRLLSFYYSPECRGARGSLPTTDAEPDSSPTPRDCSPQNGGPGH
Details: at 1 µM
Just the number please, in %, no unit attached.

Before answering, review these 10 worked examples.
O=C1Nc2ccc(Cl)cc2/C1=C/c1cc(Cl)c(O)c(Cl)c1; 111
O=C(CCCc1ccc(-c2ccccc2F)cc1)Nc1ccc(O)cc1; 88
Nc1ncnc2c1cnn2-c1ccccc1; 135
COc1ccc(COc2ccc(Cc3cnc(N)nc3N)cc2OC)cc1; 137
Nc1ncnc2[nH]nc(Nc3ccc(F)cc3)c12; 124
CCCCc1c(-c2ccc(OC)cc2)[nH]c2nccnc12; 100
NC(=O)c1ccc(-c2nc(-c3ccc4c(c3)OCCO4)c(-c3ccccn3)[nH]2)cc1; 124
CCN(CC)CCNC(=O)c1c(C)[nH]c(/C=C2\C(=O)Nc3ccc(Cl)cc32)c1C; 13
N#C/C(=C1/Nc2ccccc2S1)c1ccnc(NCCc2cccnc2)n1; 132
CC(C)(C)n1nc(Cc2cccc3ccccc23)c2c(N)ncnc21; 124

Quick one: residual activity of Nc1n[nH]c2nc3ccccc3nc12 ?
122

Field entry: Cc1cc(C)c(/C=C2\C(=O)Nc3ccccc32)[nH]1
65

----------
Biological target: Cyclin-dependent kinase 5/CDK5 activator 1 (Homo sapiens) (UniProt Q00535+Q15078)
Sequence (Q00535 whole entry): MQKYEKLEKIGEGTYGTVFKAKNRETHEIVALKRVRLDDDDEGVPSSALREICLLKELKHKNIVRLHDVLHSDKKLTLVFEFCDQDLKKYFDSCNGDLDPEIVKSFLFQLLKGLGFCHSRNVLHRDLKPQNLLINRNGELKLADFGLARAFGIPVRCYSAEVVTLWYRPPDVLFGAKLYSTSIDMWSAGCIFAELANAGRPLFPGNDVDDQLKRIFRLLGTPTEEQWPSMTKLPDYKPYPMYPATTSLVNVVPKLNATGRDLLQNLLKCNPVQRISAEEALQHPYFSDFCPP
Sequence (Q15078 99-307 partner limits assumed): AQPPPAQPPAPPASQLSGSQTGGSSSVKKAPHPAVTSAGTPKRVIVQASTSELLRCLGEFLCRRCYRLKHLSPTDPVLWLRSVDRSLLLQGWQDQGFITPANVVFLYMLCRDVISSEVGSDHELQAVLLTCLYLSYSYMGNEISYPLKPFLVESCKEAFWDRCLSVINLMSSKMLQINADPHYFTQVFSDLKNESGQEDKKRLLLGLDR
Conditions: at 1 µM
Reported Metric: residual activity (%)
Express your answer in %, writing the number without its unit.

As a guide, the following entries are already answered.
Nc1ncnc2c1cnn2-c1ccccc1; 92
CN(C)S(=O)(=O)c1ccc2c(c1)/C(=C/c1cc3c([nH]1)CCCC3)C(=O)N2; 90

# input compound: Nc1n[nH]c2nc3ccccc3nc12 ; wanted: its residual activity
92

Do the same for Nc1ncnc2c1c(-c1ccc(Oc3ccccc3)cc1)cn2C1CCCC1 please
80

Note, next up: NC(=O)Nc1sc(-c2ccc(F)cc2)cc1C(N)=O
81

Now consider Nc1ncnc2[nH]nc(Nc3ccc(F)cc3)c12 .
110

Also check O=C1NC(=O)C(c2cn(CCCO)c3ncccc23)=C1c1cnccn1
90

----------
Target: Serine/threonine-protein kinase Nek7 (Homo sapiens)
Details: at 10 µM
Description: Millipore: Percentage of residual kinase activity of NEK7 at 10uM relative to control. Control inhibitor: Phosphoric acid* at 0.3uM. Buffer: 8 mM MOPS pH 7.0, 0.2 mM EDTA
Reported Metric: residual activity (%)
State the answer as a number, implicitly in %.

Past entries and their recorded results:
Nc1nc(Nc2ccc(S(N)(=O)=O)cc2)nn1C(=O)c1c(F)cccc1F; 105
O=c1cc(N2CCNCC2)oc2c(-c3ccccc3)cccc12; 95
NC(=O)Nc1sc(-c2ccc(F)cc2)cc1C(N)=O; 103

Given O=C1NC(=O)c2c1c1c3ccccc3[nH]c1n1cncc21 , state its recorded residual activity.
86

----------
Target: AMP-activated protein kinase, AMPK (Homo sapiens) (UniProt P54646+O43741+P54619+Q9UGJ0+Q9Y478+Q13131+Q9UGI9)
Conditions: at 10 µM
Reported Metric: residual activity (%)
Write the number in % without appending the unit.

These solved cases illustrate the format of a correct answer.
O=c1cc(N2CCOCC2)oc2c1ccc1ccccc12; 90
CCOC(=O)c1c(C)[nH]c(/C=C2\C(=O)Nc3ccccc32)c1C; 74
O=C1Nc2ccccc2/C1=C\c1c(Cl)[nH]c2ccccc12; 58
Nc1ncnc2[nH]nc(Nc3ccc(F)cc3)c12; 65
CN([C@@H](Cc1ccc(OS(=O)(=O)c2cccc3cnccc23)cc1)C(=O)N1CCN(c2ccccc2)CC1)S(=O)(=O)c1cccc2cnccc12; 86
COc1cc2nccc(Oc3ccc(NC(=O)Nc4cc(C)on4)c(Cl)c3)c2cc1OC; 82
Nc1nc(Nc2ccc(S(N)(=O)=O)cc2)nn1C(=O)c1c(F)cccc1F; 15
O=C1C(Cl)=C(N2C(=O)CCC2=O)C(=O)c2ccccc21; 101

Any idea what its residual activity is? The molecule is O=C1NC(=O)C(c2cn(CCCO)c3ncccc23)=C1c1cnccn1
80

----------
Biological target: Protein kinase C delta type (Homo sapiens) (UniProt Q05655)
Sequence (Q05655 whole entry, looked up): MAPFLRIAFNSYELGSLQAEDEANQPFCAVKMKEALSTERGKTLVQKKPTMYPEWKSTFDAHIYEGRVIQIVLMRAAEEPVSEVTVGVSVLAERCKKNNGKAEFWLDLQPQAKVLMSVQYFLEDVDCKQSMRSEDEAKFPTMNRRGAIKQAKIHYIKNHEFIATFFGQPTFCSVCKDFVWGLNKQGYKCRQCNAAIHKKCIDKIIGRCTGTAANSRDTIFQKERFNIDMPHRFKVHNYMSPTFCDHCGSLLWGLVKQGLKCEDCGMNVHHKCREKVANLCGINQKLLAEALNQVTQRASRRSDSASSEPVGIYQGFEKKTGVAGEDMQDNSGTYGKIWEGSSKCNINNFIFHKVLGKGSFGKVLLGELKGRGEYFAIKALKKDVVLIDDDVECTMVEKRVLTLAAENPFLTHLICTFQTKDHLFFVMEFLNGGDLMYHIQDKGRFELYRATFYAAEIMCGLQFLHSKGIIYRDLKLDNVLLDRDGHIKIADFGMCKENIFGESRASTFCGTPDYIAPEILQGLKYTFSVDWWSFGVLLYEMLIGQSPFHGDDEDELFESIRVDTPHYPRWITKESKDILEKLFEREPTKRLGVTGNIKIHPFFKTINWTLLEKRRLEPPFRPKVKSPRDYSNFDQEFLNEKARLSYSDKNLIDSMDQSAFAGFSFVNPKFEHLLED
Details: at 10 µM
Classification field: enter yes (1) for residual activity values not below 70%, no (0) for values below it.

Reference set (3 entries):
COc1cc2nccc(Oc3ccc(NC(=S)NC(=O)c4ccccc4C)cc3)c2cc1OC; yes (1)
O=C1NC(=O)C(c2cn(CCCn3ccnc3)c3ccccc23)=C1Nc1ccccc1; no (0)
CC(C)(C)c1nc2c3ccc(F)cc3c3c(=O)[nH]ccc3c2[nH]1; no (0)

Check this compound for residual activity at or above 70%: CCCCc1c(-c2ccc(OC)cc2)[nH]c2nccnc12
yes (1)

Now try COc1ccc2c(c1)c(C1=C(c3c[nH]c4ccccc34)C(=O)NC1=O)cn2CCCN(C)C .
no (0)

Cool, now O=C(Nc1nc2ccccc2n1CCN1CCOCC1)c1cccc([N+](=O)[O-])c1
yes (1)

Moving on to NC(=O)Nc1sc(-c2ccc(F)cc2)cc1C(N)=O
no (0)

----------
Target: Serine/threonine-protein kinase DCLK2 (Homo sapiens)
Settings: at 1 µM
The following compounds are shown together with reported residual activity values.
State just the number; it will be interpreted in %.

In the examples that follow, each entry is paired with its recorded residual activity.
CCCCc1c(-c2ccc(OC)cc2)[nH]c2nccnc12; 72
Nc1ncnc2c1c(-c1ccc(Oc3ccccc3)cc1)cn2C1CCCC1; 91
Nc1nc(Nc2ccc(S(N)(=O)=O)cc2)nn1C(=O)c1c(F)cccc1F; 68
Nc1ncnc2c1cnn2-c1ccccc1; 71

If you can, please state the reported residual activity value of O=C(c1cc2cc(O)ccc2[nH]1)c1cc2cc(O)ccc2[nH]1 .
70

Could you do the same for N#C/C(=C\c1ccc(O)c(O)c1)C(=O)NCc1ccccc1 , please?
69

----------
Target: Cyclin-dependent kinase 5/CDK5 activator 1 (Homo sapiens) (UniProt Q00535+Q15078)
Settings: at 10 µM
Output true for residual activity not less than 80%; output false otherwise.

Example entries begin here.
CC(C)(C)n1nc(Cc2cccc3ccccc23)c2c(N)ncnc21; true
CC(C)c1nn(-c2c(Cl)cccc2Cl)c2nc(Cc3ccc(OCCO)cc3)[nH]c(=O)c12; false
O=C(O)/C=C/c1cc(Br)c(Br)c(Br)c1Br; false
COc1cc2c(cc1OC)-c1n[nH]c(Nc3cccc(F)c3)c1C2; false
O=C1NC(=O)C(c2cn(CCCn3ccnc3)c3ccccc23)=C1Nc1ccccc1; false

Could you tell me if the measured residual activity of Nc1ncnc2c1c(-c1ccc(Oc3ccccc3)cc1)cn2C1CCCC1 reaches 80% or more?
false

Can you handle O=C1Cc2c([nH]c3ccc([N+](=O)[O-])cc23)-c2ccccc2N1 next?
false

Same for c1ccc(-c2cnc(Nc3ccc(OCCN4CCCC4)cc3)s2)cc1
false

Record: NCCNc1ncc(C(N)=O)c(Nc2cccc(C(F)(F)F)c2)n1
false

Would you mind doing O=C1NC(=O)C(c2c[nH]c3ccccc23)=C1c1c[nH]c2ccccc12 as well?
false

Cool, now CCN(CC)CCNC(=O)c1c(C)[nH]c(/C=C2\C(=O)Nc3ccc(Cl)cc32)c1C
false

Could you do the same for CC(C)[C@H](CO)Nc1nc(Nc2cc(N)cc(Cl)c2)c2ncn(C(C)C)c2n1 , please?
false

Another molecule to check: O=C1NC(=O)c2c1c1c3ccccc3[nH]c1n1cncc21
false

Record: NC(=O)Nc1sc(-c2ccc(F)cc2)cc1C(N)=O
false

CCCC(=O)Oc1ccc2[nH]c(C(=O)c3cc4ccccc4[nH]3)cc2c1 , same question.
true

Same lookup for O=C(NC(NC(=S)Nc1ccc(F)c([N+](=O)[O-])c1)C(Cl)(Cl)Cl)C(c1ccccc1)c1ccccc1 (centres undefined) , please.
true

Also need N#C/C(=C1/Nc2ccccc2S1)c1ccnc(NCCc2cccnc2)n1 , thanks.
false

----------
Target: Mitogen-activated protein kinase kinase kinase 5 (Homo sapiens) (UniProt Q99683)
Sequence (Q99683 whole entry): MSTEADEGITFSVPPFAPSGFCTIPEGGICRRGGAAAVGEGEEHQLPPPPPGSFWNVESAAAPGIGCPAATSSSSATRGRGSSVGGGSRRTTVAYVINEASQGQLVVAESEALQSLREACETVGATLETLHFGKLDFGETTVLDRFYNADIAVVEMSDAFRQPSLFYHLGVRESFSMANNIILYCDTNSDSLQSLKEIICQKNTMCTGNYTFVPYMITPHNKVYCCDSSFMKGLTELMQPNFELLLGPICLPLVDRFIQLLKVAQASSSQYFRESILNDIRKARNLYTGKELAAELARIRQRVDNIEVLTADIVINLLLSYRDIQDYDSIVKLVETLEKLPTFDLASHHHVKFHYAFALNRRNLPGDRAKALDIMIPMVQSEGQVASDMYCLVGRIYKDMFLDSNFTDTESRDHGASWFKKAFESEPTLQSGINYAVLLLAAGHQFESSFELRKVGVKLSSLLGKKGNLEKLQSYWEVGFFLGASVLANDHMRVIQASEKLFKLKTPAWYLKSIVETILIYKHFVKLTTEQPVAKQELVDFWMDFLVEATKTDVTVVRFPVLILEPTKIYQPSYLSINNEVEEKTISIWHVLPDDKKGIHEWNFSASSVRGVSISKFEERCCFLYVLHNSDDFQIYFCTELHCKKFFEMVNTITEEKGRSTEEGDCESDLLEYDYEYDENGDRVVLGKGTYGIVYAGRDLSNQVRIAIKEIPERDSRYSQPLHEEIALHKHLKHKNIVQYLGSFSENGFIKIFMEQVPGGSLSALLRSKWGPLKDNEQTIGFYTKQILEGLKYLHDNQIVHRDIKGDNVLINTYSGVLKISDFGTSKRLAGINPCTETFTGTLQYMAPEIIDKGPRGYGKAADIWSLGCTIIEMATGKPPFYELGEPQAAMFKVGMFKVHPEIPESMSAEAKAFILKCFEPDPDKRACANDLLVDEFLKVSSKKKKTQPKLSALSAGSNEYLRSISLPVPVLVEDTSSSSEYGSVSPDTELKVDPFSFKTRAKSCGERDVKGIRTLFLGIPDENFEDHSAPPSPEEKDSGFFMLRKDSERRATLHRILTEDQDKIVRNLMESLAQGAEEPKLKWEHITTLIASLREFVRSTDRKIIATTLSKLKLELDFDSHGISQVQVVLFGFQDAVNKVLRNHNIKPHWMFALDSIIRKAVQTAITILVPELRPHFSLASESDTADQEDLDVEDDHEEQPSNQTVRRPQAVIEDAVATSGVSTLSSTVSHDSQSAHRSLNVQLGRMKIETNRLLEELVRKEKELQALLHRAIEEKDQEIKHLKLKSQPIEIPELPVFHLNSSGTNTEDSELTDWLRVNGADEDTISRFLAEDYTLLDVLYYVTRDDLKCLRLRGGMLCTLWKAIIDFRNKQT
Conditions: at 1 µM
residual activity for assorted molecules
API: value field is a number in %; no unit string.

Before answering, review these 2 worked examples.
COc1cc2ncnc(Nc3cccc(Cl)c3)c2cc1OC; 103
O=C(CCCc1ccc(-c2ccccc2F)cc1)Nc1ccc(O)cc1; 99

Which residual activity value belongs to O=C(O)/C=C/c1cc(Br)c(Br)c(Br)c1Br ?
98

Next entry: Cn1c2ccccc2c2c3c(c4c5ccccc5n(CCC#N)c4c21)CNC3=O
17

And Cn1sc(=O)n(Cc2ccccc2)c1=O ?
81

Query CC(C)(C)n1nc(Cc2cccc3ccccc23)c2c(N)ncnc21 next
111

Record: CC(C)c1nn(-c2c(Cl)cccc2Cl)c2nc(Cc3ccc(OCCO)cc3)[nH]c(=O)c12
95

----------
# residual activity per entry
Target: Protein-tyrosine kinase 6 (Homo sapiens) (UniProt Q13882)
Sequence (Q13882 whole entry, looked up): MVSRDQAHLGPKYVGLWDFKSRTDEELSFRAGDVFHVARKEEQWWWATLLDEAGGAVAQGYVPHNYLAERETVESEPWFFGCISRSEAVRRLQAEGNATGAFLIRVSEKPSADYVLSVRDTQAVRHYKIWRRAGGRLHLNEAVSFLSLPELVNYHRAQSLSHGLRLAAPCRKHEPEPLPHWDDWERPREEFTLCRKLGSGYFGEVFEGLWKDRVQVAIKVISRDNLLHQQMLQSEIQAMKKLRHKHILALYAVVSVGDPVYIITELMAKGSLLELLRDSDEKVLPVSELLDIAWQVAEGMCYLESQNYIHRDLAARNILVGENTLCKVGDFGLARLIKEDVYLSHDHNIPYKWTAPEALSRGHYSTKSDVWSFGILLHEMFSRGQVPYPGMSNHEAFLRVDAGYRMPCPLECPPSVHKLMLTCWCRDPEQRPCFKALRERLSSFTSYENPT
Details: at 10 µM
Field format: number, assumed %, no unit text.

Nc1ncnc2[nH]nc(Nc3ccc(F)cc3)c12; 19
Nc1nccc(-c2c(-c3ccc(F)cc3)ncn2C2CCNCC2)n1; 30
COc1cc2c(cc1OC)-c1n[nH]c(Nc3cccc(F)c3)c1C2; 25
CCCCc1c(-c2ccc(O)cc2)[nH]c2nccnc12; 29
COc1ccc(CNC(=O)Nc2ncc([N+](=O)[O-])s2)cc1; 17
NC(=O)Nc1sc(-c2ccc(F)cc2)cc1C(N)=O; 26
O=C1Nc2ccccc2/C1=C\c1c(Cl)[nH]c2ccccc12; 54
O=C1Cc2c([nH]c3ccc(Br)cc23)-c2ccccc2N1; 72

// next item, residual activity requested
Dear colleague, I am looking for the recorded residual activity of the following compound: COc1ccc2c(c1)c(C1=C(c3c[nH]c4ccccc34)C(=O)NC1=O)cn2CCCN(C)C
82
